Reported pEC50 values for a set of compounds
Test system: ER-alpha MCF7
Test: ER-alpha MCF7 HCS EC50; stated as measured by in vitro cell proliferation assays of Examples 902 and 903
Type: cell-based
Details: Homo sapiens, MCF7, MCF7 cells; Table 2
The read-out pEC50 is expressed as -log10 of concentration in moles per litre.

Some solved entries appear below for comparison.
{"COMPOUND": "C[C@@H]1Cc2c([nH]c3ccccc23)[C@@H](c2c(F)cc(NC3CN(CCCF)C3)cc2F)N1C[C@](C)(F)CO [Example 289]", "STUDY TARGET": "ER-alpha MCF7", "pEC50": 9.70}
{"COMPOUND": "C[C@@H]1Cc2c([nH]c3ccccc23)[C@@H](c2c(F)cc(OCCN3CC(CF)C3)cc2F)N1C(=O)[C@@H](C)CF [Example 215]", "STUDY TARGET": "ER-alpha MCF7", "pEC50": 9.47}
{"COMPOUND": "C[C@@H]1Cc2c([nH]c3ccccc23)[C@@H](c2c(F)cc(NC3CN(CCCF)C3)cc2F)N1S(C)(=O)=O [Example 311]", "STUDY TARGET": "ER-alpha MCF7", "pEC50": 9.61}
{"COMPOUND": "C[C@@H]1Cc2c([nH]c3ccccc23)[C@@H](c2ccc(OC3CN(CCCF)C3)cc2Cl)N1CC(C)(C)F [Example 211]", "STUDY TARGET": "ER-alpha MCF7", "pEC50": 9.70}
{"COMPOUND": "C[C@@H]1Cc2c([nH]c3ccccc23)[C@@H](c2c(F)cc(OCCN3CC(CF)C3)cc2F)N1C(=O)C1COC1 [Example 213]", "STUDY TARGET": "ER-alpha MCF7", "pEC50": 8.40}

Exercise: Reported pEC50 for C[C@@H]1Cc2c([nH]c3ccccc23)[C@@H](c2c(F)cc(OC3CN(CCCF)C3)cc2F)N1CC1(CF)CC1 [Example 227] : what is it?
Key: 9.77

Exercise: # lookup: pEC50 of CC[C@H]1Cc2c([nH]c3ccccc23)[C@@H](c2c(F)cc(OCCN3CC(CF)C3)cc2F)N1CC(C)(C)F [Example 172]
Key: 7.77

Exercise: Consider the compound C[C@H]1Cc2c([nH]c3ccc(F)cc23)[C@@H](c2c(F)cc(NC3CN(CCCF)C3)cc2F)N1C[C@@](C)(F)CO [Example 434] and give its measured pEC50.
Key: 9.15

Exercise: For C[C@@H]1Cc2c([nH]c3ccccc23)[C@@H](c2c(F)cc(OC3CN(CCCF)C3)cc2F)N1S(C)(=O)=O [Example 202] , what is its reported pEC50?
Key: 10.00

Exercise: Return reported pEC50; argument: C[C@@H]1Cc2c([nH]c3ccccc23)[C@@H](c2c(F)cc(OC3CN([C@H]4C[C@@H](O)C4)C3)cc2F)N1CC(C)(C)F [Example 334]
Key: 9.89

* * *

Each item that follows carries a reported EC50.
Test system: ER-alpha MCF7
Test: ER-alpha MCF7 HCS EC50; stated as measured by in vitro cell proliferation assays of Examples 902 and 903
Format: cell-based
Conditions: Homo sapiens, MCF7, MCF7 cells; Table 2
Number in nM, nothing else.

{"COMPOUND": "C[C@H]1Cc2c([nH]c3ccc(F)cc23)[C@H](c2c(F)cc(OC3CN(CCCF)C3)cc2F)N1CC(F)F [Example 386]", "EC50, nM": 23}
{"COMPOUND": "CC(C)(F)CN1CCc2c([nH]c3ccccc23)[C@@H]1c1c(F)cc(OCCN2CC(CF)C2)cc1F [Example 237]", "EC50, nM": 46}

Okay, now this compound:
Exercise: Recorded EC50 for C[C@@H]1Cc2c([nH]c3ccccc23)[C@@H](c2c(F)cc(OCCN3CC(CF)C3)cc2F)N1C[C@H](C)C(=O)O [Example 299] , please?
Key: 3

All figures here come from patent US20250114338A1.
